Taken from patent US8802678B2.

Mark Yes only for melting point values smaller than 200 °C; exact matches and larger values are No.

Compound String	Category
CC(=O)NCC(=O)N1CCC(CCN2CCN(c3cccc(C(F)(F)F)c3)CC2)CC1	Yes
N#CCC(=O)N[C@H]1CC[C@H](CCN2CCN(c3ccc(Cl)cc3)CC2)CC1	No
COCCCC(=O)N[C@H]1CC[C@H](CCN2CCN(c3cccc(C(F)(F)F)c3)CC2)CC1	Yes
N#CCC(=O)N[C@H]1CC[C@H](CCN2CCN(c3cccc(Br)c3)CC2)CC1	Yes
COCCCC(=O)N[C@H]1CC[C@H](CCN2CCN(c3ccc(Cl)c(Cl)c3F)CC2)CC1	No
CC(=O)CN1CCC(CCN2CCN(c3cc(C(F)(F)F)nc(C(C)(C)C)n3)CC2)CC1.Cl.Cl.Cl	No
N#CCCCC(=O)N[C@H]1CC[C@H](CCN2CCN(c3cccc(Cl)c3C#N)CC2)CC1	Yes
Cc1cc(N2CCN(CC[C@H]3CC[C@H](NC(=O)CCCC#N)CC3)CC2)ccc1F	Yes
